TESTED_ON: Microphthalmia-associated transcription factor (Homo sapiens)
Sequence (O75030 whole entry): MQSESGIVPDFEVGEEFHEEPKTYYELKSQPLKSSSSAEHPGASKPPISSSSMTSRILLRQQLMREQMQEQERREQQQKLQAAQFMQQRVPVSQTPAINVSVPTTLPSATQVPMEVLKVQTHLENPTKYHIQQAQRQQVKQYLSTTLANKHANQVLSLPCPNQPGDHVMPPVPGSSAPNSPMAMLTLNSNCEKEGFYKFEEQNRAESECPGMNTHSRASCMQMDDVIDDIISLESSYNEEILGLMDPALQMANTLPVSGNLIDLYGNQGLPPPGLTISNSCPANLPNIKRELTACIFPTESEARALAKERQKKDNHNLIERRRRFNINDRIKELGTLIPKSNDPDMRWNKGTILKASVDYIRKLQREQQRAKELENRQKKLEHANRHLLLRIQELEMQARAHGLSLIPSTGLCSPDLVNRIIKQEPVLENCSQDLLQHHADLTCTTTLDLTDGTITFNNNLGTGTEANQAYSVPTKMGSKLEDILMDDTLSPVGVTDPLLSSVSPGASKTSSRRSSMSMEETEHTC
MEASUREMENT_DESCRIPTION: reducers of TRPM1 reporter luminescence, concentration series – cell-based, SK-MEL-5, cherry-picked, set 3, MITF inhibitor project, dose response (AID 493073);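 note: SK-MEL-5 melanoma cells with luciferase driven by the MITF target TRPM1 promoter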
Assay type: functional
Active and inactive are the calls of the source.

# COMPOUND, AC50
measured = [
    ("CN1C/C(=C/c2cccnc2)C(=O)/C(=C/c2cccnc2)C1", "5.31 µM (active)"),
    ("CC(C)C(CCNC1CCN(C)CC1)c1ccc(Cl)cc1 (stereo not given)", "11.9 µM (active)"),
    ("CCCCN1C=CC(=C2C(=O)c3ccccc3C2=O)C=C1", "0.921 µM (active)"),
    ("Cc1cc(C)cc(N2C(=O)NC(=O)/C(=C\\C=C\\c3ccco3)C2=O)c1", "4.88 µM (active)"),
    ("O=C(CNc1cccc2ccccc12)N/N=C/c1ccc([N+](=O)[O-])o1", "5.05 µM (active)"),
]

* * *

Test system: Streptococcus
MEASUREMENT_DESCRIPTION: GAS UMAA2166 growth inhibition – luminescence, BacTiterGlo, counter-screen for streptokinase expression inhibitor project, dose response (AID 1915);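 note: potency for reduction of bacterial viability or growth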
Format: functional, organism-based
Activity calls are given as the source filed them.
Documented EC50 across a set of molecules
ATTRIBUTE_MEASURED: EC50

# SMILES_REPRESENTATION, RESULT
measured = [
    ("O=C(/C=C/c1ccccc1)NCCc1ccccc1", "> 150 µM (not active)"),
    ("O=C(Nc1nnc(-c2ccc(Br)cc2)o1)c1ccco1", "13.7 µM (active)"),
    ("O=C(/C=C/c1ccccc1Cl)c1ccccc(=O)c1O", "9.56 µM (active)"),
    ("O=C(CN1CCCC1)Nc1ccc(NC(=O)Nc2ccccc2)cc1", "> 150 µM (not active)"),
    ("CC(C)(C)c1nnc(N/N=C/c2cc(Br)ccc2O)n(N)c1=O", "3.18 µM (active)"),
    ("Sc1nnc(-c2cc(-c3ccccc3)[nH]n2)n1/N=C/c1cccc(Cl)c1", "84.4 µM (active)"),
]

* * *

MEASUREMENT_DESCRIPTION: luciferase reporter signal suppression in cells – H4 neuroglioma cells, luminescence, dose response (AID 1990)
Format: functional, cell-based
Active and inactive are the calls of the source.
ATTRIBUTE_MEASURED: EC50

# SMILES_REPRESENTATION, RESULT
measured = [
    ("CCOC(=O)CNC(=O)CSc1nnc(NC(=O)c2ccc(C)cc2)s1", "9.66 µM (active)"),
    ("CCc1c(C2(O)CCCCC2)[nH]c2ccc(C(F)(F)F)cc12", "60.5 µM (active)"),
    ("CCN(CC)c1ccc(-c2nn3c(-c4ccccc4OC)nnc3s2)cc1", "< 0.1 µM (active)"),
    ("CCc1c(C)sc(NC(=O)CSc2nc3c(c(C(F)(F)F)n2)CCc2ccccc2-3)c1C#N", "> 120 µM (not active)"),
    ("Cc1sc2ncnc(N3CCC(C(=O)N(C)CC(=O)Nc4ccc(Cl)c(C(F)(F)F)c4)CC3)c2c1C", "7.86 µM (active)"),
    ("Cc1ccc(-c2cc(C(=O)N/N=C/c3c(C)nn(-c4ccccc4)c3C)[nH]n2)s1", "6.26 µM (inconclusive)"),
    ("c1coc(C2Nc3cccc4cccc(c34)N2)c1", "> 120 µM (not active)"),
]
